# System: VZV strain Ellen
# Assay explanation: VZV antiviral (ELISA) assay
# Format: cell-based
# Measurement parameters: Human alphaherpesvirus 3, HFF, read-out: IC50 (ug/ml) VZV, VZV strain Ellen, HFF cells, ELISA
Each entry below carries its recorded IC50.

Sample answers from the record:
Compound	IC50
O=C(Nc1ccc(NC(=S)NCc2ccc(Cl)c(Cl)c2)cc1)c1ccccc1F	10 µg/mL
COc1cc(OC)c(NC(=S)Nc2ccc(NC(=O)c3ccccc3NS(C)(=O)=O)cc2)cc1Cl	> 10 µg/mL
CC(NC(=S)Nc1ccc(NC(=O)c2ccccc2F)cc1)c1ccccc1Br (stereo not shown)	0.3 µg/mL

Please turn your attention to the following entry.
Entry COc1ccccc1C(=O)Nc1ccc(NC(=S)N[C@@H](C)c2ccc(Br)cc2)cc1 , IC50 reported as 0.09 µg/mL

----------
# Test system: HCMV recombinant mutant virus whose genome contains the prokaryotic beta-glucuronidase gene
# Assay explanation: microbe, parasite or virus in culture
# Type: cell-based, human cytomegalovirus
# Measurement parameters: Human betaherpesvirus 5, Fibroblast, read-out: IC50 ug/ml HCMV, HCMV, human foreskin fibroblasts
Each entry below carries its recorded IC50.

Entry CN1CCN(c2ccc(CNC(=S)Nc3ccc(NC(=O)c4ccccc4F)cc3)cc2C(F)(F)F)CC1 [Example 687] , IC50 reported as > 0.5 µg/mL

----------
# Tested on: HCMV recombinant mutant virus whose genome contains the prokaryotic beta-glucuronidase gene
# Assay explanation: microbe, parasite or virus in culture
# Format: cell-based, human cytomegalovirus
# Measurement parameters: Human betaherpesvirus 5, Fibroblast, read-out: IC50 ug/ml HCMV, HCMV, human foreskin fibroblasts
Measured endpoint: IC50 (µg/mL)
Enter your answer as a number in µg/mL; do not include the unit.

Sample answers from the record:
Compound	Measured endpoint	Uom	Recorded number
Cc1ccc([C@@H](C)NC(=S)Nc2ccc(NC(=O)c3ccccc3F)cc2)cc1	IC50	µg/mL	7.1
CC(NC(=S)Nc1ccc(NC(=O)c2ccccc2Br)cc1)c1ccc(F)cc1 (stereo not shown)	IC50	µg/mL	4.1
CC(NC(=S)Nc1ccc(NC(=O)c2nccc3ccccc23)cc1)c1ccc(Br)cc1 (stereo not shown)	IC50	µg/mL	7.8

Please turn your attention to the following entry.
Entry O=C(Nc1ccc(NC(=S)Nc2ccc(SC3CCCCC3)c(Cl)c2)cc1)c1ccccc1F , IC50 reported as 9

----------
# System: VZV strain Ellen
# Assay explanation: VZV antiviral (ELISA) assay
# Format: cell-based
# Measurement parameters: Human alphaherpesvirus 3; VZV strain Ellen, HFF cells, ELISA; read-out: IC50 (ug/ml) VZV
Each entry below carries its recorded IC50.

Entry CC(NC(=S)Nc1ccc(NC(=O)c2ccccc2F)cc1)c1ccc(F)cc1 (stereo not drawn) , IC50 reported as 1.5 µg/mL

Entry Nc1c(Br)cc(NC(=S)Nc2ccc(NC(=O)c3ccccc3F)cc2)cc1Br , IC50 reported as > 10 µg/mL

Entry COc1ccc(NC(=S)Nc2ccc(NC(=O)c3ccccc3F)cc2)cc1C(F)(F)F , IC50 reported as 5 µg/mL

Entry O=C(Nc1ccc(NC(=S)NCc2cc(F)cc(C(F)(F)F)c2)cc1)c1ccccc1F , IC50 reported as > 10 µg/mL

Entry CC(NC(=S)Nc1ccc(NC(=O)c2ccccc2F)cc1)c1ccccc1C(F)(F)F (stereo not drawn) , IC50 reported as > 7.5 µg/mL

Entry O=C(Nc1ccc(NC(=S)Nc2cccc(C(F)(F)F)c2)cc1)c1ccccc1F , IC50 reported as > 10 µg/mL

Entry Cc1ccc(NC(=S)Nc2ccc(NC(=O)c3ccccc3F)cc2)cc1F , IC50 reported as > 10 µg/mL

Entry CC(NC(=S)Nc1ccc(NC(=O)c2ccccc2F)cc1)c1ccc(C#N)cc1 (stereo not drawn) , IC50 reported as > 7.5 µg/mL
